experiment_description: CCTE_Shafer_MEA_dev_burst_duration_mean: CCTE's Neural Network Formation Assay for Mean Burst Duration, Shafer Lab (AID 2284045)
Activity calls are given as the source filed them. The calls were made as follows: active = hit-call score of the fitted dose curve at least 0.9, where 1 is the maximum; inactive = score below 0.9.
Hello, when you answer, please use one of the following outcomes: active, inactive

Worked examples follow.
# lookup: test call for S=C1NCCN1
inactive

# lookup: test call for CC(Oc1cccc(Cl)c1)C(=O)O (stereo not drawn)
inactive

More entries:
# lookup: test call for O=[N+]([O-])c1cc(C(F)(F)F)c(Cl)c([N+](=O)[O-])c1Nc1ncc(C(F)(F)F)cc1Cl
active

* * *

experiment_description: CCTE_Shafer_MEA_dev_spike_duration_mean: CCTE's Neural Network Formation Assay for Mean Spike Duration, Shafer Lab (AID 2284051);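 also: mean network spike duration pooled as area under curve over DIV 5 to 12 recordings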
Activity calls are given as the source filed them. The calls were made as follows: active = hit-call score of the fitted dose curve at least 0.9, where 1 is the maximum; inactive = score below 0.9.
Hello, when you answer, please use one of the following outcomes: YES for active, NO for inactive

# lookup: test call for CCOP(=S)(OCC)Oc1cc(C)nc(C(C)C)n1
NO

# lookup: test call for CN(C)[C@@H]1C(=O)C(C(N)=O)=C(O)[C@@]2(O)C(=O)C3=C(O)c4c(O)cccc4[C@@](C)(O)[C@H]3[C@H](O)[C@@H]12
YES

# lookup: test call for CN1COCN(Cc2cnc(Cl)s2)C1=N[N+](=O)[O-]
NO

More entries:
# lookup: test call for S=C1NCCN1
YES

Values compiled from PubChem BioAssay (EPA / NIEHS).
